assay: qHTS assay to identify small molecule antagonists of the vitamin D receptor (VDR) signaling pathway - cell viability counter screen (AID 743225); conditions: VDR-bla HEK293T viability, CellTiter-Glo luminescence, 16 h; series mostly up to 61 µM; note: nearly all actives have a fitted effect of over 50% in size
Records with an inconclusive call do not appear. Calls of active or inactive are those of the source. Calls come from the whole dose curve; as a rule, active = well fitted cell-killing curve with a large enough effect in the repeat runs; inconclusive = weak or mixed curves, or effect the other way; inactive = no such curve, though single readings can be large or run the other way.
Write down the outcome that applies. Available outcomes: 1 = active, -1 = inactive

OC12N=C(c3ccccc3)SC1Cc1cc(Cl)ccc12 (stereo not given) ... -1
CCO[C@@H]1O[C@H](C(COCc2ccccc2)OCc2ccccc2)[C@H](OCc2ccccc2)[C@H]1O (stereo not given in full) ... -1
CC(C)(c1cc(Br)c(OCC(Br)CBr)c(Br)c1)c1cc(Br)c(OCC(Br)CBr)c(Br)c1 (stereo not given) ... -1
O=C(O)Cc1ccc2c(c1)C(=O)c1ccccc1CO2 ... -1

Could you now look at the following compound, please?
Each compound tested received a call. Report the one for `COC1=C(OC)C(=O)C(CCCCCCCCCCO)=C(C)C1=O` .
1
